Target: T1, Human IL-33-his (human, UniProt O95760 112-270, biotinylated with EZ-Link NHS-Biotin where used as IL-33-his-biotin)
T1 construct: Used plain (SPR, cell assays) and biotinylated (ELISA); also called IL-33-his-biotin
T1 sequence: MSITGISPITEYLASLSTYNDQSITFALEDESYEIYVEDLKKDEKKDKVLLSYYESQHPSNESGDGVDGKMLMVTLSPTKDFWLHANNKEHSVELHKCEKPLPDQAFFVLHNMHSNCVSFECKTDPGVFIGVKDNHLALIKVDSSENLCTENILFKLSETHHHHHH
Assay: ELISA as Example 9, IL-33-his-biotin on streptavidin plate
Reported EC50 values for a set of binders
Form entry: value (pM) — number only.

Some binders with known EC50 results, for comparison:
874F7-ch (antibody, human IgG4 S228P, kappa, V domains shown, Chimeric: human IgG4 (S228P) and human kappa constant regions; also called chimeric antibody 874F7-ch) VH: QVQLKESGPGLVAPSHSLSITCNVSGFSLSKYGVHWIRQIPGRGLDWLGVLRAGGSTGYNSALMSRLSISKDSSKSQVFLKMNDLRTDDTAVYFCVRDHYYYSSYGGFVYWGQGTLVTVSA VL: DIQMTQSPASQSASLGESVTITCLASQTIGAWLAWYRQQPGKSPQLLIYAATRLADGVPSRFSGSGSGTEFSFKINNLQAEDFVSYYCQQLDSSPYTFGGGTRLEMRT = 177
871G1-Hu1 (antibody, human IgG4 S228P, kappa, V domains shown, Humanized; also called humanized antibody 871G1-Hu1) VH: QVQLQESGPGLVKPSETLSLTCTVSGFSLSKYGVHWIRQPPGKGLEWIGVLRAGGTISYNSALMSRVTISEDISKSQVSLKLSSVTAADTAVYYCARDHYYYSSFGGFASWGQGTLVTVSS VL: DIQMTQSPSSVSASVGDRVTITCLASQTIGAWLAWYQQKPGKSPKLLIYAATRLADGVPSRFSGSGSGTDFTLTISSLQPEDFATYYCQQLNSTPYTFGQGTKVEIKR = 191

Consider the additional binder presented here.
Consider the binder shown here: 864F3-Hu2 (antibody, human IgG4 S228P, kappa, V domains shown, Humanized; also called humanized antibody 864F3-Hu2) VH: QVQLQESGPGLVKPSETLSLTCTVSGFSLTNYGVHWVRLPPGKGLEWLGVIRAGGSSDYNSALMSRLTISKDNSKSQVSLKLSSVTAADTAVYYCARDHYFSNSYGGSPYWGQGTLVTVSS VL: DIQMTQSPSSLSASVGDRVTITCLASQTIATWLAWYQQKPGKSPKLLIYAATRLADGVPSRFSGSGSGTDFTLTISSLQPEDFATYYCQQLYNTPYTFGQGTKVEIKR What is its recorded EC50?
181
